Biological target: Phosphotyrosine protein phosphatase (Mycobacterium tuberculosis, UniProt A0A045ISB3)
Sequence (A0A045ISB3 whole entry): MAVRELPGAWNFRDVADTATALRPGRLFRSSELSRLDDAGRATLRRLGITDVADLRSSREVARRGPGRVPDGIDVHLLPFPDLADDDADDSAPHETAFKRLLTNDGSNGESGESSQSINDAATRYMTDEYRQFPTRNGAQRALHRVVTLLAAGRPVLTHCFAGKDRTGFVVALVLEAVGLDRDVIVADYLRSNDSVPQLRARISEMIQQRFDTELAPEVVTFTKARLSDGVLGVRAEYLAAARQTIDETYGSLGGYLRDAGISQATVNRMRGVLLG
measured attribute: pKi
The read-out pKi is expressed as -log10 of concentration in moles per litre.

CCOC(=O)C1=C(C)Oc2nc(C)n(Cc3cn([C@@H]4O[C@H](COC(C)=O)[C@@H](OC(C)=O)[C@H](OC(C)=O)[C@H]4OC(C)=O)nn3)c(=O)c2C1c1ccc(Br)cc1 (stereo partly drawn) :: 5.74
CCOC(=O)C1=C(C)Oc2nc(C)n(Cc3cn([C@@H]4O[C@H](COC(C)=O)[C@@H](OC(C)=O)[C@H](OC(C)=O)[C@H]4OC(C)=O)nn3)c(=O)c2C1c1ccc(C)cc1 (stereo partly drawn) :: 5.67

Readout pKi for CCOC(=O)C1=C(C)Oc2nc(C)n(Cc3cn([C@@H]4O[C@H](COC(C)=O)[C@@H](OC(C)=O)[C@H](OC(C)=O)[C@H]4OC(C)=O)nn3)c(=O)c2C1c1ccc(C(C)C)cc1 (stereo partly drawn) , test system Phosphotyrosine protein phosphatase (Mycobacterium tuberculosis, UniProt A0A045ISB3), was 5.96
